Data provenance: PubChem BioAssay (NCI)

growth: recorded values
# System: UACC-257 melanoma
# assay overview: NCI-60 one-dose screen, 48 h (100 = growth as untreated, 0 = no growth, -100 = all killed)
# assay conditions: 10 µM
This is part of a sample that, as a whole, favours compounds with a hit. Of some 83,000 tested, about 20% had one in any assay. Calls of active or inactive are those of the source. How the source made its calls: active means growth percent below 10; inactive means the rest.

compound: CC(=O)Nc1ccc(-c2cn(-c3cccc(C(=O)Nc4cccc(OC(F)(F)F)c4)c3)nn2)cn1
growth: 89.8% (inactive)
//
compound: CN1CCN(c2ccc(Nc3nc(NCCCNC(=O)c4ccc(Cl)cc4)c4sccc4n3)cc2)CC1
growth: 71.9% (inactive)
//
compound: O=S(=O)(c1ccc(Cl)cc1)c1nc(-c2ccccc2)oc1S(=O)(=O)c1ccc(Cl)cc1
growth: 85.5% (inactive)
//
compound: COc1ccc(C(=O)CSc2nnc(-c3c[nH]c4ccccc34)n2-c2ccccc2)cc1
growth: 59.5% (inactive)
//
compound: CC(=O)OC[C@@]1(C)C2CC[C@]3(C)C(CC=C4C5CC(C)(C)CC[C@]5(C(=O)Nc5ccccc5)CC[C@]43C)[C@@]2(C)C[C@@H](OC(C)=O)[C@@H]1OC(C)=O (stereo partly drawn)
growth: 18.5% (inactive)
//
compound: CNC(=O)c1cc(-c2ccc(NC(=O)Nc3ccc(C)cc3)cc2)nc2cccnc12
growth: 123% (inactive)
//
compound: CCOC(=O)N/C(=C1/OCCN1C)[P+](c1ccccc1)(c1ccccc1)c1ccccc1
growth: 27.8% (inactive)
//
compound: Cc1ccc(/C=C/C(=O)c2ccc(NC(=O)CSc3nnc(-c4c[nH]c5ccccc45)n3-c3ccccc3)cc2)cc1
growth: 111% (inactive)

----------
# Tested on: HCC-2998 colon
# assay overview: NCI-60 one-dose screen, 48 h (100 = growth as untreated, 0 = no growth, -100 = all killed)
# assay conditions: 10 µM
About 83,000 compounds went through this panel and 20% of them were active in at least one assay; those are over-represented in the sample as a whole.
Recorded growth by entry

molecule: COc1ccc(OC)c(/C=N/NC(=O)c2ccc3nc(-c4ccc(Cl)cc4)[nH]c3c2)c1
growth [%]: 85.4

molecule: NC1=NC(c2ccccc2Cl)N=C(Nc2nn[nH]n2)N1 (centres undefined)
growth [%]: 104

molecule: O=C1CCC(N2Cc3c(NCc4ccc(-c5ccccc5)cc4)cccc3C2=O)C(=O)N1 (centres undefined)
growth [%]: 67.4

molecule: CN1CCc2c(sc3ncnc(N/N=C/c4cn(-c5ccccc5)nc4-c4ccc(Br)cc4)c23)C1
growth [%]: 27.1

molecule: NS(=O)(=O)c1ccc(N=Nc2c(O)n(CC(=O)Nc3ccccc3Br)c3ccccc23)cc1
growth [%]: 39.5

molecule: O=C(Cc1ccc2c(c1)CN(C1CCC(=O)NC1=O)C2=O)NCc1cccc2ccccc12 (centres undefined)
growth [%]: -48.6

molecule: O=C(CN1CCN(c2ncnc3c2cnn3-c2ccccc2)CC1)Nc1nncs1
growth [%]: 59.7

molecule: O=c1c2ccccc2nc(COc2ccccc2)n1/N=C/c1ccc(N2CCCC2)cc1
growth [%]: 106

molecule: CN(C)c1ccc(/C=C/c2nc3ccccc3c(=O)n2CC(=O)Nc2ccccc2)cc1
growth [%]: 58.2

molecule: CC[C@]12C=CCN3CC[C@@]4(c5cc(C#CCNc6ccc(C)c(Nc7nccc(-c8cccnc8)n7)c6)c(OC)cc5N(C)[C@H]4[C@@](O)(C(=O)OC)[C@@H]1OC(C)=O)C32 (some centres undefined)
growth [%]: 41.2

molecule: COc1ccc(C(C)=C(c2ccc(OCCCN(C)C)cc2)c2ccc(OCCCN(C)C)cc2)cc1
growth [%]: -91.6

molecule: Clc1cccc(N/N=C/c2c[nH]c3ccccc23)n1
growth [%]: 30.2

molecule: COc1ccc(CCN2C(=O)/C(=C/c3csc(C#N)n3)SC2=S)cc1
growth [%]: -32.8

molecule: Cc1cc(=O)oc2cc(OCCCCOc3ccc(/C=C/C(=O)Nc4ccc(F)c(Cl)c4)cc3)ccc12
growth [%]: 123

molecule: COc1cccc2nc(Nc3cccc(NC(=O)c4ccc(CN5CCCN(C)CC5)c(C(F)(F)F)c4)c3)ccc12
growth [%]: -96.6

molecule: O=C(CSc1nnc(-c2ccc3nc(-c4ccccc4)[nH]c3c2)o1)Nc1ccc(Cl)cc1
growth [%]: 22.2

molecule: CC1(c2ccccc2)NC(=O)N(CC(=O)Nc2ccc(C(=O)/C=C/C=C/c3ccccc3)cc2)C1=O (centres undefined)
growth [%]: 87.2

molecule: CCOC(=O)C(Cc1ccccc1)N1C(=O)/C(=C/N2N=C(c3ccc(OC)cc3)CC2c2ccc3ccccc3c2)SC1=S (centres undefined)
growth [%]: -92

molecule: C/C(=C\CSc1ccccc1C(=O)O)CCCC(C)CCCC(C)CCCC(C)C (centres undefined)
growth [%]: 18.3
